Value source: the supplement of paper PMC11061612

Test system: LOUCY (T-Lymphoblastic Leukemia)
Assay: Bliss excess, mean over the matrix (fraction); higher = more synergy
Field: Bliss excess. Provide a value for each of the molecules that follow.
One number for each entry.

# example entries with known answers
molecule	Bliss excess
CC1(C)CCC(CN2CCN(c3ccc(C(=O)NS(=O)(=O)c4ccc(NCC5CCOCC5)c([N+](=O)[O-])c4)c(Oc4cnc5[nH]ccc5c4)c3)CC2)=C(c2ccc(Cl)cc2)C1 [Venetoclax] + C[C@@H](Nc1cc(F)cc(F)c1)c1cc(C(=O)N(C)C)cc2c(=O)cc(N3CCOCC3)oc12 [AZD8186] (first compound max 1 µM, 7x7, partner max 3 µM)	0.0146
COc1cccc(OCCCN)c1-c1cc(Nc2cnc(C#N)cn2)n[nH]1 [Prexasertib] + C[C@@H]1COCCN1C2=NC(=NC(=C2)C3(CC3)[S@](=N)(=O)C)C4=C5C=CNC5=NC=C4 [AZD6738] (first compound max 1 µM, 7x7, partner max 10 µM)	-0.0009

Now for the molecule whose Bliss excess we want.
Q) Please supply the value of reported Bliss excess for the item CC(=O)c1c(C)c2cnc(Nc3ccc(N4CCNCC4)cn3)nc2n(C2CCCC2)c1=O [Palbociclib] + Cc1c2c(nn1C)CSCc1cc(n(C)n1)CSc1cc(c3ccccc3c1)OCCCc1c(C(=O)O)n(C)c3c-2c(Cl)ccc13 [AZD5991] (first compound max 10 µM, 7x7, partner max 1 µM)
A) 0.0154

* * *

Test system: FLO-1 (Esophageal Adenocarcinoma)
Assay: Bliss excess, mean over the matrix (fraction); higher = more synergy
observed-property: Bliss excess

Worked examples, 2 compounds total:
compound	Bliss excess
CS(=O)(=O)CCNCc1ccc(-c2ccc3ncnc(Nc4ccc(OCc5cccc(F)c5)c(Cl)c4)c3c2)o1 [Lapatinib] + NC1(c2ccc(-c3nc4ccn5c(=O)[nH]nc5c4cc3-c3ccccc3)cc2)CCC1 [MK-2206] (first compound max 10 µM, 7x7, partner max 10 µM)	-0.0401
COc1cccc2c1C(=O)c1c(O)c3c(c(O)c1C2=O)C[C@@](O)(C(=O)CO)C[C@@H]3O[C@H]1C[C@H](N)[C@H](O)[C@H](C)O1 [Doxorubicin] + Cc1cc2ncnn2cc1Nc1ncc2c(n1)n(C1CCOCC1)c(=O)n2C [AZD7648] (first compound max 1 µM, 7x7, partner max 10 µM)	0.027

Give Bliss excess for all compounds that follow.
1. C[C@@H](Nc1cc(F)cc(F)c1)c1cc(C(=O)N(C)C)cc2c(=O)cc(N3CCOCC3)oc12 [AZD8186] + CC(=O)c1c(C)c2cnc(Nc3ccc(N4CCNCC4)cn3)nc2n(C2CCCC2)c1=O [Palbociclib] (first compound max 10 µM, 7x7, partner max 10 µM)
2. Cc1c2c(nn1C)CSCc1cc(n(C)n1)CSc1cc(c3ccccc3c1)OCCCc1c(C(=O)O)n(C)c3c-2c(Cl)ccc13 [AZD5991] + CC(=O)O[C@H]1C(=O)[C@@]2(C)[C@H]([C@H](OC(=O)c3ccccc3)[C@]3(O)C[C@H](OC(=O)[C@H](O)[C@@H](NC(=O)c4ccccc4)c4ccccc4)C(C)=C1C3(C)C)[C@]1(OC(C)=O)CO[C@@H]1C[C@@H]2O [Paclitaxel] (first compound max 1 µM, 7x7, partner max 3 µM)
3. N#Cc1cnc(Nc2cc(NC[C@H]3CNCCO3)c(C(F)(F)F)cn2)cn1 [SRA737] + Nc1ccn([C@@H]2O[C@H](CO)[C@@H](O)C2(F)F)c(=O)n1 [Gemcitabine] (first compound max 10 µM, 7x7, partner max 0.3 µM)
4. O=C(c1cc(Cc2n[nH]c(=O)c3ccccc23)ccc1F)N1CCN(C(=O)C2CC2)CC1 [Olaparib] + CN(CC[C@H](CSC1=CC=CC=C1)NC2=C(C=C(C=C2)S(=O)(=O)NC(=O)C3=CC=C(C=C3)N4CCC(CC4)[C@H](C5=CC=CC=C5C6=CC=C(C=C6)Cl)O)S(=O)(=O)C(F)(F)F)CCO [AZD4320] (first compound max 10 µM, 7x7, partner max 1 µM)

A)
0.0479
-0.0172
0.124
-0.0338

* * *

Tested on: RT4 (Bladder Carcinoma)
Assay: Bliss excess, mean over the matrix (fraction); higher = more synergy
observed-property: Bliss excess

compound	experimental-system	Bliss excess
CCc1c2c(nc3ccc(O)cc13)-c1cc3c(c(=O)n1C2)COC(=O)[C@]3(O)CC [SN-38] + CN(C)CCCOc1ccc(-c2ccc3ncc4c(c3c2)n(C2CCOCC2)c(=O)n4C)cn1 [AZD0156] (first compound max 0.3 µM, 7x7, partner max 1 µM)	RT4 (Bladder Carcinoma)	-0.0184

Q) Look up and report measured Bliss excess for this entry: NC1(C(=O)N[C@@H](CCO)c2ccc(Cl)cc2)CCN(c2ncnc3[nH]ccc23)CC1 [Capivasertib] + COc1nnc2ccc(N3CCC(c4ccc(OCCN5CCN(C)C(=O)[C@H]5C)cc4)CC3)nn12 [AZD5153] (first compound max 10 µM, 7x7, partner max 1 µM)
A) -0.0021

* * *

System: HuO-3N1 (Osteosarcoma)
Assay: combination Emax (second highest fraction inhibited in the dose matrix, 72 h); higher = more inhibition; extreme values may be limits of the assay
Output: class label from combination Emax. Mapping: low group (below 0.2), middle group (0.2 to below 0.5), high group (0.5 or more)

compound	label-value
CC1(C)CCC(CN2CCN(c3ccc(C(=O)NS(=O)(=O)c4ccc(NCC5CCOCC5)c([N+](=O)[O-])c4)c(Oc4cnc5[nH]ccc5c4)c3)CC2)=C(c2ccc(Cl)cc2)C1 [Venetoclax] + C[C@@H](Nc1cc(F)cc(F)c1)c1cc(C(=O)N(C)C)cc2c(=O)cc(N3CCOCC3)oc12 [AZD8186] (first compound max 1 µM, 7x7, partner max 3 µM)	middle group
CCN(CCO)CCCOc1ccc2c(Nc3cc(CC(=O)Nc4cccc(F)c4)[nH]n3)ncnc2c1 [AZD2811] + O=C(c1cc(Cc2n[nH]c(=O)c3ccccc23)ccc1F)N1CCN(C(=O)C2CC2)CC1 [Olaparib] (first compound max 1 µM, 7x7, partner max 10 µM)	low group
NC1(C(=O)N[C@@H](CCO)c2ccc(Cl)cc2)CCN(c2ncnc3[nH]ccc23)CC1 [Capivasertib] + CC(=O)c1c(C)c2cnc(Nc3ccc(N4CCNCC4)cn3)nc2n(C2CCCC2)c1=O [Palbociclib] (first compound max 10 µM, 7x7, partner max 10 µM)	middle group
CN(CCO)CC[C@H](CSc1ccccc1)Nc1ccc(S(=O)(=O)NC(=O)c2ccc(N3CCC([C@@H](O)c4ccccc4-c4ccc(Cl)cc4)CC3)cc2)cc1S(=O)(=O)C(F)(F)F [AZD4320] + CCN(CCO)CCCOc1ccc2c(Nc3cc(CC(=O)Nc4cccc(F)c4)[nH]n3)ncnc2c1 [AZD2811] (first compound max 1 µM, 7x7, partner max 1 µM)	low group
COc1cccc(OCCCN)c1-c1cc(Nc2cnc(C#N)cn2)n[nH]1 [Prexasertib] + CN(C)CCCOc1ccc(-c2ccc3ncc4c(c3c2)n(C2CCOCC2)c(=O)n4C)cn1 [AZD0156] (first compound max 1 µM, 7x7, partner max 1 µM)	middle group
CCc1c2c(nc3ccc(O)cc13)-c1cc3c(c(=O)n1C2)COC(=O)[C@]3(O)CC [SN-38] + O=C(c1cc(Cc2n[nH]c(=O)c3ccccc23)ccc1F)N1CCN(C(=O)C2CC2)CC1 [Olaparib] (first compound max 0.3 µM, 7x7, partner max 10 µM)	high group

Q) Band for CCN(CCO)CCCOc1ccc2c(Nc3cc(CC(=O)Nc4cccc(F)c4)[nH]n3)ncnc2c1 [AZD2811] + C=CCn1c(=O)c2cnc(Nc3ccc(N4CCN(C)CC4)cc3)nc2n1-c1cccc(C(C)(C)O)n1 [AZD1775] (first compound max 1 µM, partner max 1 µM) ?
A) middle group

Q) Please indicate the class for CN(C)CCCOc1ccc(-c2ccc3ncc4c(c3c2)n(C2CCOCC2)c(=O)n4C)cn1 [AZD0156] + C=CCn1c(=O)c2cnc(Nc3ccc(N4CCN(C)CC4)cc3)nc2n1-c1cccc(C(C)(C)O)n1 [AZD1775] (first compound max 1 µM, partner max 1 µM) based on its combination Emax.
A) low group

Q) Exam item: assign CCc1c2c(nc3ccc(O)cc13)-c1cc3c(c(=O)n1C2)COC(=O)[C@]3(O)CC [SN-38] + CN(C)CCCOc1ccc(-c2ccc3ncc4c(c3c2)n(C2CCOCC2)c(=O)n4C)cn1 [AZD0156] (first compound max 0.3 µM, 7x7, partner max 1 µM) to the correct category.
A) high group

* * *

I'd appreciate it if you could supply Bliss excess values for the items below.
Tested on: HTC-C3 (Thyroid Gland Carcinoma)
Assay: Bliss excess, mean over the matrix (fraction); higher = more synergy
One number for each entry.

Look over these answered cases.
compound	Bliss excess
CC1(C)CCC(CN2CCN(c3ccc(C(=O)NS(=O)(=O)c4ccc(NCC5CCOCC5)c([N+](=O)[O-])c4)c(Oc4cnc5[nH]ccc5c4)c3)CC2)=C(c2ccc(Cl)cc2)C1 [Venetoclax] + C[C@@H]1COCCN1C2=NC(=NC(=C2)C3(CC3)[S@](=N)(=O)C)C4=C5C=CNC5=NC=C4 [AZD6738] (first compound max 1 µM, 7x7, partner max 10 µM)	-0.0354
Cn1cnc2c(F)c(Nc3ccc(Br)cc3Cl)c(C(=O)NOCCO)cc21 [Selumetinib] + C[C@@H]1COCCN1C2=NC(=NC(=C2)C3(CC3)[S@](=N)(=O)C)C4=C5C=CNC5=NC=C4 [AZD6738] (first compound max 10 µM, 7x7, partner max 10 µM)	-0.0072

Could you now look at the following compound, please?
Q) Quote Bliss excess reported for C[C@@H](c1ccc2nccn2c1)n1nnc2ncc(-c3cnn(C)c3)nc21 [Savolitinib] + Cc1c2c(nn1C)CSCc1cc(n(C)n1)CSc1cc(c3ccccc3c1)OCCCc1c(C(=O)O)n(C)c3c-2c(Cl)ccc13 [AZD5991] (first compound max 1 µM, 7x7, partner max 1 µM) please.
A) -0.0373
